Measured self-cleavage of individual entries
B1: Osa-1-4 twister ribozyme (parent)
chain: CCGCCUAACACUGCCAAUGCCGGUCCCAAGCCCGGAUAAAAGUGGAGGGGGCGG

variants of: B1; assay: self-cleavage, relative activity (ratio to wild type); higher = more cleavage; co-transcriptional
assayReadout: self-cleavage

>  <variantKey>
C15A G53U

>  <reportedResult>
0.1

$$$$
>  <variantKey>
C27U U24C

>  <reportedResult>
0.06

$$$$
>  <variantKey>
G47C U24C

>  <reportedResult>
0.04

$$$$
>  <variantKey>
A29U C27G

>  <reportedResult>
0.05

$$$$
>  <variantKey>
C32G G23C

>  <reportedResult>
0.08

$$$$
>  <variantKey>
A16G G23C

>  <reportedResult>
0.09

$$$$
>  <variantKey>
A41U G35U

>  <reportedResult>
0.87

$$$$
>  <variantKey>
A7C U18A

>  <reportedResult>
0.04

$$$$
>  <variantKey>
G22C G53C

>  <reportedResult>
0.03

$$$$
>  <variantKey>
A10G A36G

>  <reportedResult>
0.86

$$$$
>  <variantKey>
A29C A46C

>  <reportedResult>
0.02

$$$$
>  <variantKey>
G42U G51C

>  <reportedResult>
0.04

$$$$
>  <variantKey>
A41U C27U

>  <reportedResult>
0.16

$$$$
>  <variantKey>
A7C C9A

>  <reportedResult>
0.09

$$$$
>  <variantKey>
C33G U37C

>  <reportedResult>
0.05

$$$$
>  <variantKey>
C25U G48C

>  <reportedResult>
0.06

$$$$
>  <variantKey>
C27A U12A

>  <reportedResult>
0.07

$$$$
>  <variantKey>
G45U U37G

>  <reportedResult>
0.21

$$$$
>  <variantKey>
A16G G23A

>  <reportedResult>
0.68

$$$$
>  <variantKey>
A17G C11G

>  <reportedResult>
0.3

$$$$
>  <variantKey>
A29G A36G

>  <reportedResult>
0.47

$$$$
>  <variantKey>
A10U C25U

>  <reportedResult>
0.05

$$$$
>  <variantKey>
A40G G48C

>  <reportedResult>
0.08

$$$$
>  <variantKey>
G34C

>  <reportedResult>
0.71

$$$$
>  <variantKey>
A16U U37C

>  <reportedResult>
1.06

$$$$
>  <variantKey>
C25U C9G

>  <reportedResult>
0.18

$$$$
>  <variantKey>
A40C C15U

>  <reportedResult>
0.05

$$$$
>  <variantKey>
C15U C21U

>  <reportedResult>
0.46

$$$$
>  <variantKey>
G49A U37G

>  <reportedResult>
0.27

$$$$
>  <variantKey>
C26A G35C

>  <reportedResult>
0.04

$$$$
>  <variantKey>
A10G C14U

>  <reportedResult>
0.28

$$$$
>  <variantKey>
A36C G23U

>  <reportedResult>
0.05

$$$$
